# target.under.test: NADPH oxidase 5 (Homo sapiens) (UniProt Q96PH1)
# Sequence (Q96PH1 whole entry, looked up): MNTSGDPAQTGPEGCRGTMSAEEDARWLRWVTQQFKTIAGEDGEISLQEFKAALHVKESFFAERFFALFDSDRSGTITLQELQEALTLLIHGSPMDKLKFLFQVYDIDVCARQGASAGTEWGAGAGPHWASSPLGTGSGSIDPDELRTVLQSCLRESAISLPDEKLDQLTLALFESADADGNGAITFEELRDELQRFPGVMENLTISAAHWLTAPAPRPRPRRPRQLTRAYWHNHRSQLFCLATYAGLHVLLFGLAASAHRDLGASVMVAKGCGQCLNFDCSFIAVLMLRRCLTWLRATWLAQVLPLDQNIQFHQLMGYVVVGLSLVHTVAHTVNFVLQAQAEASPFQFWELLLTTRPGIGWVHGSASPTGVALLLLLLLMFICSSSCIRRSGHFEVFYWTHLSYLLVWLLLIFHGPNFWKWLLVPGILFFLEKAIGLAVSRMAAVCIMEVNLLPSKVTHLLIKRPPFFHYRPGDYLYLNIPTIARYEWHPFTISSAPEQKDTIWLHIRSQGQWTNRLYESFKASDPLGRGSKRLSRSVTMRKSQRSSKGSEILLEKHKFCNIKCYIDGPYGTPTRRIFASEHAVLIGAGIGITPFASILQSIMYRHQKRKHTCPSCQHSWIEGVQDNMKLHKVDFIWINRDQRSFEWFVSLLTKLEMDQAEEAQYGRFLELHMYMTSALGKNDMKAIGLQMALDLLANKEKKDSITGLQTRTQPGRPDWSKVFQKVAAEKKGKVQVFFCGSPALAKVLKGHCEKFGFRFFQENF
# test.method.notes: NOX5-dependent H2O2 signal modulators, primary screen, NOX inhibitor project, cell-based, HEK293-NOX5, Amplex Red fluorescence (AID 1161)
# cond: HEK293-NOX5, ionomycin, 45 min, higher = more signal
Kind request: treat 1 as inclusive, so z-score at 1 or higher is Y, anything lower is N.

>  <compound>
CCOC(=CC(=O)OC)CC(O)c1cccc(Cl)c1 (stereo unspecified)

>  <target.under.test>
NADPH oxidase 5 (Homo sapiens) (UniProt Q96PH1)

>  <group.label>
N

$$$$
>  <compound>
CC(C)CNC(=O)[C@@H]1c2ccccc2C(=O)N(Cc2cc(F)cc(C(F)(F)F)c2)[C@H]1c1ccc(CO)cc1

>  <target.under.test>
NADPH oxidase 5 (Homo sapiens) (UniProt Q96PH1)

>  <group.label>
N

$$$$
>  <compound>
COC(=O)[C@@]1(Cc2ccc(OC)cc2)[C@H]2c3cc(C(=O)N(C)C)n(CCc4c[nH]c5ccc(O)cc45)c3C[C@H]2CN1C(=O)c1ccccc1

>  <target.under.test>
NADPH oxidase 5 (Homo sapiens) (UniProt Q96PH1)

>  <group.label>
Y

$$$$
>  <compound>
CC(C)(C)OC(=O)CC[C@]1(C(=O)NCCN2CCOCC2)N=C(c2ccc(OCCCO)cc2)O[C@H]1c1ccccc1

>  <target.under.test>
NADPH oxidase 5 (Homo sapiens) (UniProt Q96PH1)

>  <group.label>
Y

$$$$
>  <compound>
NC(=O)NCC#Cc1ccc2c(c1)[C@]1(C(=O)N2)[C@H](c2ccc(O)cc2)N2[C@H](c3ccccc3)[C@H](c3ccccc3)OC(=O)[C@H]2[C@@H]1C(=O)Nc1nc2ccccc2s1

>  <target.under.test>
NADPH oxidase 5 (Homo sapiens) (UniProt Q96PH1)

>  <group.label>
N

$$$$
>  <compound>
COC(=O)[C@@]1(Cc2ccc(OC)cc2)[C@H]2c3cc(C(=O)N(C)C)n(Cc4nc5ccccc5[nH]4)c3C[C@H]2CN1C(=O)c1ccccc1

>  <target.under.test>
NADPH oxidase 5 (Homo sapiens) (UniProt Q96PH1)

>  <group.label>
Y

$$$$
